Target: T1, 4H56-bA
T1 chain: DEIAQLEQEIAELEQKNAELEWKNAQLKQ
Assay: two-hybrid library CCNG1;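 note: natural log of median RNA to DNA barcode read ratio; higher means stronger binding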
Listing of recorded interaction score by entry.
Lab note: record just the number, no unit beside it.

Previously resolved entries follow.
- Binder: "DEIAQLEQKIAELKQENAELKWKIAQLEQ [4H349-bA]"
  Measurement Type: "interaction score"
  Measured: -0.982
- Binder: "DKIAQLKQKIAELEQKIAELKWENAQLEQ [4H2859-bA]"
  Measurement Type: "interaction score"
  Measured: 0.529
- Binder: "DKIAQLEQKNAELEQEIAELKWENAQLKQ [4H2444-bA]"
  Measurement Type: "interaction score"
  Measured: -1.91

Ask | State, in one line, measured interaction score of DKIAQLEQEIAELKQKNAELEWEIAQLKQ [4H2162-bA]
Reply | 0.371
